Please go through the items and note down their TGI.
# Tested on: ACHN renal
# Protocol: NCI tumour cell line growth inhibition, 48 h

Query: State its TGI: CC(=O)N/N=C1/NN(C(C)=O)C2(S1)C(=O)Nc1ccc(C)cc12 (configuration not stated)
Reply: > 100 µM

Query: State its TGI: `CCOC(=O)c1nnsc1NC(=O)NCCCCCCn1c(=O)n(CCCCCCNC(=O)Nc2snnc2C(=O)OCC)c(=O)n(CCCCCCNC(=O)Nc2snnc2C(=O)OCC)c1=O`
Reply: > 100 µM

Query: State its TGI: `Cn1c(-c2ccccc2)c2cc3nc4ccccc4nc3cc2c1-c1ccccc1`
Reply: 83.3 µM

Query: State its TGI: `S=C1C(=Nc2ccccc2)N(C2CCCCC2)C(=NC2CCCCC2)N1c1ccccc1`
Reply: > 100 µM

Query: State its TGI: `CC(=O)Nc1nc2ncc(C=O)nc2c(=O)[nH]1`
Reply: > 100 µM

Query: State its TGI: `CCO.CCO.Oc1ccc(Nc2ncns2)cc1.Oc1ccc(Nc2ncns2)cc1.[Ti]`
Reply: > 100 µM

Query: State its TGI: `O=C(CNC(=O)c1ccccc1)Oc1c(Cl)c(Cl)c(Cl)c(Cl)c1Cl`
Reply: 65.1 µM

Provenance of the data: PubChem BioAssay (NCI)
